- test.system: OsWRKY34 (Oryza sativa, UniProt Q0JBA9 1-250)
- Sequence (Q0JBA9 entry or part of it): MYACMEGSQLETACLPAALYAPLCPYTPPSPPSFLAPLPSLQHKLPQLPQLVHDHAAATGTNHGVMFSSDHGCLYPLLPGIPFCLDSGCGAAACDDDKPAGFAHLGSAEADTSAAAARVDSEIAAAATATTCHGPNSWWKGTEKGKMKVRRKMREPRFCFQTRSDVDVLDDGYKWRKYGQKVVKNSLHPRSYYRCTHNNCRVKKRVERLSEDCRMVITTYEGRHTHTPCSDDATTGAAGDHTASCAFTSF
- experiment.summary: protein-binding microarray (RPBM); PBS, 2% BSA, 51.3 ng/ul salmon testes DNA, 50 uM zinc acetate, 200 nM TF, 25 C, 1 h; high values mean tight binding
- cond: protein: recombinant; tags: N-terminal polyhistidine and DsRed monomer fusion (pET32a); label: CyDye5-dUTP incorporated in the synthesized complementary strand; 3' TTTTT single-stranded linker to array surface; dsDNA, one strand shown
The full ranking holds about 68,000 sequences; the median of “fluorescence intensity (a.u.)” is about 9,100, and the highest 2% start at about 16,000. For the sample, the highest values were picked, then their nearest neighbours and some sequences at random.
The reader will find reported binding signal values listed item by item below.

seq.string | test.system | binding signal
TGTCACATTTTTCGTCGTCTCCATCTTCATCTTCTTGTCGCGGAGTCACCTAGTGCAG | OsWRKY34 (Oryza sativa, UniProt Q0JBA9 1-250) | 11200 fluorescence intensity (a.u.)
TTCTTGCCGGAGGAGGGGCAGGGGAGGGAGCCGGGCGGGACGGAGTCACCTAGTGCAG | OsWRKY34 (Oryza sativa, UniProt Q0JBA9 1-250) | 23500 fluorescence intensity (a.u.)
CTTATTTCTTTTCCAGTTAGGCATATATTATCTGTTTTCTCGGAGTCACCTAGTGCAG | OsWRKY34 (Oryza sativa, UniProt Q0JBA9 1-250) | 8700 fluorescence intensity (a.u.)
CACAACTATTTCTACTTTTATCATTCCTACCTTTTCTAATCGGAGTCACCTAGTGCAG | OsWRKY34 (Oryza sativa, UniProt Q0JBA9 1-250) | 8180 fluorescence intensity (a.u.)
CCACCTGCTCGCCGTCGACGCCGCCCTCGCCATCTTCAATCGGAGTCACCTAGTGCAG | OsWRKY34 (Oryza sativa, UniProt Q0JBA9 1-250) | 12800 fluorescence intensity (a.u.)
AACTCTTTCTGCCCACTTCCTCAACCCATGCTTATCTACCCGGAGTCACCTAGTGCAG | OsWRKY34 (Oryza sativa, UniProt Q0JBA9 1-250) | 8240 fluorescence intensity (a.u.)
GAGTGACATTTGGGGTGGTTTTTGCAATTTTCTCTAAATTCGGAGTCACCTAGTGCAG | OsWRKY34 (Oryza sativa, UniProt Q0JBA9 1-250) | 13000 fluorescence intensity (a.u.)
GTGGTCCGGTGGTGGGGTGATGGGGCGTGGCGGTTCTGTCCGGAGTCACCTAGTGCAG | OsWRKY34 (Oryza sativa, UniProt Q0JBA9 1-250) | 15400 fluorescence intensity (a.u.)
AGAAGGGAAGGGGAGGGGAGGGCGGGACGCCGGCCGGAGCCGGAGTCACCTAGTGCAG | OsWRKY34 (Oryza sativa, UniProt Q0JBA9 1-250) | 10200 fluorescence intensity (a.u.)
GGGGAGGGAGCCGGGCGGGATTCAGCCATGAGGAGGAGGGCGGAGTCACCTAGTGCAG | OsWRKY34 (Oryza sativa, UniProt Q0JBA9 1-250) | 9050 fluorescence intensity (a.u.)
CACCTCACCCTCACCCGCACACGCCGACACCCCGACGCGTCGGAGTCACCTAGTGCAG | OsWRKY34 (Oryza sativa, UniProt Q0JBA9 1-250) | 9390 fluorescence intensity (a.u.)
GAAATGTTGGTGACGGTGGAGGATTTTGTTGTTTTAGTGTCGGAGTCACCTAGTGCAG | OsWRKY34 (Oryza sativa, UniProt Q0JBA9 1-250) | 9790 fluorescence intensity (a.u.)
TACCCACACCGATCTGCCGCTGCCCAGTTCCACCTACTTTCGGAGTCACCTAGTGCAG | OsWRKY34 (Oryza sativa, UniProt Q0JBA9 1-250) | 16800 fluorescence intensity (a.u.)
ACCCAAAGCCACCCGCAACAACCGACGACGACGACGACCGCGGAGTCACCTAGTGCAG | OsWRKY34 (Oryza sativa, UniProt Q0JBA9 1-250) | 18200 fluorescence intensity (a.u.)
ACCTACTTTTCGTCCCTTAATTCTGTGGCTATGTTCAAATCGGAGTCACCTAGTGCAG | OsWRKY34 (Oryza sativa, UniProt Q0JBA9 1-250) | 12700 fluorescence intensity (a.u.)
CTTTGGCTTCTTGCCTACCGCGTTCTTGGTGATCGTTGGTCGGAGTCACCTAGTGCAG | OsWRKY34 (Oryza sativa, UniProt Q0JBA9 1-250) | 8270 fluorescence intensity (a.u.)
GCCATCCACTTGTGCTGCCAATTTGCTCAATCCCGACAAGCGGAGTCACCTAGTGCAG | OsWRKY34 (Oryza sativa, UniProt Q0JBA9 1-250) | 8220 fluorescence intensity (a.u.)
CACCCAAGCCAAGCCCACGACCCGCACCGCAACACGCACACGGAGTCACCTAGTGCAG | OsWRKY34 (Oryza sativa, UniProt Q0JBA9 1-250) | 8520 fluorescence intensity (a.u.)
ATGAGTTCCCAACCGCCACTTACATTAAGTACCACACTCCCGGAGTCACCTAGTGCAG | OsWRKY34 (Oryza sativa, UniProt Q0JBA9 1-250) | 8660 fluorescence intensity (a.u.)
ATCATCCCATCCCATCTCATCCGTCCATCCGCCAACTCATCGGAGTCACCTAGTGCAG | OsWRKY34 (Oryza sativa, UniProt Q0JBA9 1-250) | 12300 fluorescence intensity (a.u.)
CTCTCTACGGCTAGCTACTCCCATTTGTGGTCAACACCTCCGGAGTCACCTAGTGCAG | OsWRKY34 (Oryza sativa, UniProt Q0JBA9 1-250) | 10500 fluorescence intensity (a.u.)
GGGGCGGCAGTGGATGGCGGTTGGGCGGCGGTGCGGGGAGCGGAGTCACCTAGTGCAG | OsWRKY34 (Oryza sativa, UniProt Q0JBA9 1-250) | 12200 fluorescence intensity (a.u.)
TAGTTTTCTCATGTTCATCAATTTAAATACCTAACAATACCGGAGTCACCTAGTGCAG | OsWRKY34 (Oryza sativa, UniProt Q0JBA9 1-250) | 8180 fluorescence intensity (a.u.)
GTCTTCCCCTAGCGCCGCCGCCTCCACCTCCGCCGCCGTCCGGAGTCACCTAGTGCAG | OsWRKY34 (Oryza sativa, UniProt Q0JBA9 1-250) | 8700 fluorescence intensity (a.u.)
TTTATACATATGTGTTTATCATACCTCACGTGTCGTATATCGGAGTCACCTAGTGCAG | OsWRKY34 (Oryza sativa, UniProt Q0JBA9 1-250) | 8040 fluorescence intensity (a.u.)
GATTATTTGCTTTACGGTTTTTTAAAAAAATTTCTTCATACGGAGTCACCTAGTGCAG | OsWRKY34 (Oryza sativa, UniProt Q0JBA9 1-250) | 9590 fluorescence intensity (a.u.)
GCAGCGCTCGTCTCTCTCTGTCTCTCCACTCTCTTCTCTCCGGAGTCACCTAGTGCAG | OsWRKY34 (Oryza sativa, UniProt Q0JBA9 1-250) | 10100 fluorescence intensity (a.u.)
AGAAGGAGAAGGCGGGGAGAGGCGGGGCGGCCACGGGAGACGGAGTCACCTAGTGCAG | OsWRKY34 (Oryza sativa, UniProt Q0JBA9 1-250) | 12500 fluorescence intensity (a.u.)
ACCCCAACGCAACCACTCTTCTCTACTACAATCGTTACTCCGGAGTCACCTAGTGCAG | OsWRKY34 (Oryza sativa, UniProt Q0JBA9 1-250) | 9310 fluorescence intensity (a.u.)
CCGGGTTCCTGTTTTTTCAACGCATGCACACTTTAATCTACGGAGTCACCTAGTGCAG | OsWRKY34 (Oryza sativa, UniProt Q0JBA9 1-250) | 9290 fluorescence intensity (a.u.)
GCTACTACTGCTGCTGCTGCTACTTATCCACCGCTTTTTTCGGAGTCACCTAGTGCAG | OsWRKY34 (Oryza sativa, UniProt Q0JBA9 1-250) | 13600 fluorescence intensity (a.u.)
ATCCCAATCCATGATCCAGCCATTCATCATCTGCATATATCGGAGTCACCTAGTGCAG | OsWRKY34 (Oryza sativa, UniProt Q0JBA9 1-250) | 9790 fluorescence intensity (a.u.)
GGGAGTAGTATTGATTTGACCATCGTTGACCAAGAATAAGCGGAGTCACCTAGTGCAG | OsWRKY34 (Oryza sativa, UniProt Q0JBA9 1-250) | 17400 fluorescence intensity (a.u.)
CCCCGCTCGCGGCCCGGTCGCGCCAAACATCGTCCGACTCCGGAGTCACCTAGTGCAG | OsWRKY34 (Oryza sativa, UniProt Q0JBA9 1-250) | 9010 fluorescence intensity (a.u.)
TTGGTGGTTGGTGGGGAGCGTGGAGATGGCGGGGCTGTCCCGGAGTCACCTAGTGCAG | OsWRKY34 (Oryza sativa, UniProt Q0JBA9 1-250) | 22200 fluorescence intensity (a.u.)
CCCCACCGCCCACCGCCCACCGCCCACCCACCTCCGCACCCGGAGTCACCTAGTGCAG | OsWRKY34 (Oryza sativa, UniProt Q0JBA9 1-250) | 11600 fluorescence intensity (a.u.)
TGGATACTTGGCGTTGGTGGGCTGGTTCTTATTGGATACGCGGAGTCACCTAGTGCAG | OsWRKY34 (Oryza sativa, UniProt Q0JBA9 1-250) | 8120 fluorescence intensity (a.u.)

The values you see were collected from paper PMC7819943.
